Source of measurements: patent US11548870B2

tested_target: Helios (Homo sapiens, UniProt Q96SW2+Q9UKS7)
Construct: fluorescently labelled antibodies against Helios and Ikaros; endogenous in cells; host or cells: Jurkat cells
Sequence (Q9UKS7 whole entry): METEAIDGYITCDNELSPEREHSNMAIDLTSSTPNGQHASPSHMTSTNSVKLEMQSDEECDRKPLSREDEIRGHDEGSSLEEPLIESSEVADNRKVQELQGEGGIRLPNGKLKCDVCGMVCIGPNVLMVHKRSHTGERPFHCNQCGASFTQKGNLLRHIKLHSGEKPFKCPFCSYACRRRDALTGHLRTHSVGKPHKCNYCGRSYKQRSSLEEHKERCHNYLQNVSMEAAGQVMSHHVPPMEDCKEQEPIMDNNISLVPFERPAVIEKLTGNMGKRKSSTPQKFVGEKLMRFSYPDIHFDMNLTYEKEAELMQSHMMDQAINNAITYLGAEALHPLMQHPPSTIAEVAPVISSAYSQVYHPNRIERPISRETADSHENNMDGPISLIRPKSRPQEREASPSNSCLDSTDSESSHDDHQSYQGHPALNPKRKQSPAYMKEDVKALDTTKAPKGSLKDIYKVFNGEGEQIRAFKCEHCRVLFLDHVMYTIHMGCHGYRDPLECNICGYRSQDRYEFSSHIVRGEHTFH
Sequence (Q96SW2 whole entry): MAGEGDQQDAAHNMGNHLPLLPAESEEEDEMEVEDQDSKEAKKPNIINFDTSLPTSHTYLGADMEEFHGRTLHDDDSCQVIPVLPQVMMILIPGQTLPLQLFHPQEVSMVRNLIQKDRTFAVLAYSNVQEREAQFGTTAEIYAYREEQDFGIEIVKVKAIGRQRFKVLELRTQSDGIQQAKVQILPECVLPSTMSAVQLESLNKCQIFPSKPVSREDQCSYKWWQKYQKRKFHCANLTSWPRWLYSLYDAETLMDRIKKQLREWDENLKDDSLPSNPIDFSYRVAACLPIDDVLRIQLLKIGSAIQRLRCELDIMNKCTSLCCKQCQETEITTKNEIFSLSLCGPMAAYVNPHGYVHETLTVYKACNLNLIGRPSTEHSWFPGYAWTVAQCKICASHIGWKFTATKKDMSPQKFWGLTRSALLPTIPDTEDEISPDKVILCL
Sequence (Q16531 whole entry partner): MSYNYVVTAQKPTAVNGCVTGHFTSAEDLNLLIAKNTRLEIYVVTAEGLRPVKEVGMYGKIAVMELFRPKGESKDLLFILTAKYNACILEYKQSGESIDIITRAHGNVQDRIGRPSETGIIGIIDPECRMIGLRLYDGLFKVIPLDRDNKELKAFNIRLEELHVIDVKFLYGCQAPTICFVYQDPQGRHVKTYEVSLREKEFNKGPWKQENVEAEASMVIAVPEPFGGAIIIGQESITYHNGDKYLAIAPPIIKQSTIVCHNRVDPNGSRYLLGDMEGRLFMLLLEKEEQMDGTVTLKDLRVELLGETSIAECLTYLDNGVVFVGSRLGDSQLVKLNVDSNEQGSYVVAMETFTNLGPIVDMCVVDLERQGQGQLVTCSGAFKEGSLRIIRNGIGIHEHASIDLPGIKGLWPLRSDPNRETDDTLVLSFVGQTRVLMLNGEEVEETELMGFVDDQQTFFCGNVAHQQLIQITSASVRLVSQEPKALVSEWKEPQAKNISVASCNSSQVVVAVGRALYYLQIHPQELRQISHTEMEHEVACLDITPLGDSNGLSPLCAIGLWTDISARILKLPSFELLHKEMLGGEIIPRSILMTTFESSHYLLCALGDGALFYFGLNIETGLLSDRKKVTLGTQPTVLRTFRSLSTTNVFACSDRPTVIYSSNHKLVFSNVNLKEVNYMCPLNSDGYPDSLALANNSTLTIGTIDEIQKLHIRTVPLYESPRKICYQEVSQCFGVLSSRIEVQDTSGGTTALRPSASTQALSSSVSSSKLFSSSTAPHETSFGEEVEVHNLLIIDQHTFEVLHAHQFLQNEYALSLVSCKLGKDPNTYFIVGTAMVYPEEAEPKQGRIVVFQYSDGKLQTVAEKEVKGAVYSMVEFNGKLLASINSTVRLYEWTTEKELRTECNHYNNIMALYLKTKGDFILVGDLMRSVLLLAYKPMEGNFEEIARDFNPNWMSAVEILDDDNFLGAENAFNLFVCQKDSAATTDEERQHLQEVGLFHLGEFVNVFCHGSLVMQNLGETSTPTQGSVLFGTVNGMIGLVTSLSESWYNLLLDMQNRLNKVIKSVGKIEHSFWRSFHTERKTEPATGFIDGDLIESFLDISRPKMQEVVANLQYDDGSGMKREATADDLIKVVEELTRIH
assay_procedure: Helios Cellular Degradation Assay (flow cytometry, Helios-PE antibody staining, 72 h)
Type: cell-based
settings: Jurkat, Jurkat cells, 72 h incubation, flow cytometry; read-out: Helios Dmax
test_readout: Dmax (%)
Dear colleague, please return just the value in %, with no unit written.

[ask] Tell me measured Dmax for CN(Cc1ccccc1)Cc1ccnc(-c2ccc3c(c2)CN(C2CCC(=O)NC2=O)C3=O)c1 (stereo not drawn) [Example 164] please.
[reply] 77

====

Each item that follows carries a reported DC50.
tested_target: Helios (Homo sapiens, UniProt Q96SW2+Q9UKS7)
Construct: fluorescently labelled antibodies against Helios and Ikaros; endogenous in cells; host or cells: Jurkat cells
assay_procedure: Helios Cellular Degradation Assay (flow cytometry, Helios-PE antibody staining, 72 h)
Assay type: cell-based
settings: Jurkat cells, 72 h incubation, flow cytometry

Worked examples follow.
- compound: "CN1CCC[C@H]1CC1CCCCN1Cc1ccnc(-c2ccc3c(c2)CN(C2CCC(=O)NC2=O)C3=O)c1 (stereo partly drawn)"
  DC50: "> 10 µM"
- compound: "CN(Cc1ccc(S(C)(=O)=O)cc1)Cc1ccnc(-c2ccc3c(c2)CN(C2CCC(=O)NC2=O)C3=O)c1 (stereo not drawn)"
  DC50: "> 10 µM"

[ask] Enter DC50 (test system Helios (Homo sapiens, UniProt Q96SW2+Q9UKS7)) for CN(Cc1ccc([N+](=O)[O-])cc1)Cc1ccnc(-c2ccc3c(c2)CN(C2CCC(=O)NC2=O)C3=O)c1 (stereo not drawn)
[reply] > 10 µM
